# tested on: Nav 1.7 (Homo sapiens (Human), UniProt Q15858)
# Sequence (Q15858 whole entry): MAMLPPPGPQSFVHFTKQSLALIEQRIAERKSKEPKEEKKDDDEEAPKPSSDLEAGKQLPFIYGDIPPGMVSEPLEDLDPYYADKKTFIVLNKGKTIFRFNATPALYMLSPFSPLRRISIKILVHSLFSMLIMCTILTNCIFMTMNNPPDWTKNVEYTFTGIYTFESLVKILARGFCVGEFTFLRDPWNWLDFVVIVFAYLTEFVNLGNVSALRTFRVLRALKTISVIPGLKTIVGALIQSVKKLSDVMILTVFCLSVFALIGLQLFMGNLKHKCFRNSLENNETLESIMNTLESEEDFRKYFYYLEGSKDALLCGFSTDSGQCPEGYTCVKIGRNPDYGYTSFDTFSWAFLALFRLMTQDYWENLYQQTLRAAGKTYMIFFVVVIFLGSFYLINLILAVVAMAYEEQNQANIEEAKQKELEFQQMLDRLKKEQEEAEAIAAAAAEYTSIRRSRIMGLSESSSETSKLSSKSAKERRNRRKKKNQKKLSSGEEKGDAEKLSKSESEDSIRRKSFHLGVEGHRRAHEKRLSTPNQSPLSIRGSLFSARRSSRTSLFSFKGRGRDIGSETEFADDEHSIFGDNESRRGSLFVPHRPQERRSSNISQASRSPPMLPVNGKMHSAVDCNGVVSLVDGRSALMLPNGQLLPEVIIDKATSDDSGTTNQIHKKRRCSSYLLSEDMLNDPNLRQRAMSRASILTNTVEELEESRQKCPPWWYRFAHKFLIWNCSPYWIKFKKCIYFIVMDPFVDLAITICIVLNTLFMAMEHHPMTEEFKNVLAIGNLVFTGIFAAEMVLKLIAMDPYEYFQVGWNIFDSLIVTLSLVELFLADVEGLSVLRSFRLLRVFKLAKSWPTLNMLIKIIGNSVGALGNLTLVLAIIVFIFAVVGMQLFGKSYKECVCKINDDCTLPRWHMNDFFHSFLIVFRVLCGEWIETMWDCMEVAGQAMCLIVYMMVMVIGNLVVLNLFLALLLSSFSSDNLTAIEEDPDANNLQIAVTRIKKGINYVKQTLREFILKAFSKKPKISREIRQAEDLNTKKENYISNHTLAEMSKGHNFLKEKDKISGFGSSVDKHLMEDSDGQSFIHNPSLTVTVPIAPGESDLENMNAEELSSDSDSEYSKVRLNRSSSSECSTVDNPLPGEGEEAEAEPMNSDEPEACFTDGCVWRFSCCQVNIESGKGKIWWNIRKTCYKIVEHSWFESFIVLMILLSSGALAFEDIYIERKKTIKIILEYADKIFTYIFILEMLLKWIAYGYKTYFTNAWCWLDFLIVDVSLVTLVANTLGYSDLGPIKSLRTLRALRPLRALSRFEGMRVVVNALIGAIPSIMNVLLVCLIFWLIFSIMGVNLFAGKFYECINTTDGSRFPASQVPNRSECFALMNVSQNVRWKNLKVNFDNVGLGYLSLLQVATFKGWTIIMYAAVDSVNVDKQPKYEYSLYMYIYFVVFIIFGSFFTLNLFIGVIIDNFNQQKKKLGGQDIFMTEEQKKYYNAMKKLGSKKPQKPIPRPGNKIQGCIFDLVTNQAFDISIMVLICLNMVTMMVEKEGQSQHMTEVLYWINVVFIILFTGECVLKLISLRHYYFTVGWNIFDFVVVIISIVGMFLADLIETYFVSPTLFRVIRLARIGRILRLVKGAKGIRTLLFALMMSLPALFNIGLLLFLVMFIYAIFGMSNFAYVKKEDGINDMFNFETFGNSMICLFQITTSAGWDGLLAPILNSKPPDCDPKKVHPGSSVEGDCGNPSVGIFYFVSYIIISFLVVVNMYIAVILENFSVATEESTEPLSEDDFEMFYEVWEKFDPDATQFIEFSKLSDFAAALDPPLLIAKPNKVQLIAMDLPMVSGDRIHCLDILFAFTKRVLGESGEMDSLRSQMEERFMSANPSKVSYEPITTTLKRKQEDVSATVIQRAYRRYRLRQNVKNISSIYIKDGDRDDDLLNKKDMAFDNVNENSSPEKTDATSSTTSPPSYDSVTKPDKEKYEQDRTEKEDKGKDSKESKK
# protocol notes: in-vitro Nav 1.7 PX (IC50)
# Format: cell-based
pIC50: −log10 of the molar value.
# cutoff 6 applies to pIC50; >= gives MET, < gives NOT MET

# compound, class label
measured = [
    ("COc1cc(-c2cc(OC)c(-n3c(=O)cnc4cc(S(=O)(=O)Nc5ncccn5)ccc43)cc2F)ccc1Cl", "MET"),
    ("COc1cc(-c2ccc(Cl)c(C)c2)ccc1-n1c(=O)ccc2cc(S(=O)(=O)Nc3ccon3)ccc21 (atropisomer, axis not shown; (M)) [Example 431]", "NOT MET"),
    ("COc1cc(-c2cccc(OC(C)C)c2)ccc1-n1c(=O)ccc2cc(S(=O)(=O)Nc3cccc(F)n3)ccc21 (atropisomer, axis not shown; (P))", "MET"),
]

---

# tested on: UniProt Q15858
# protocol notes: in-vitro Nav 1.7 PX (IC50)
# Type: cell-based
readout label: log10(IC50) (log10 of the value in µM)

# molecule, readout label, endpoint result
rows = [
    ("COc1cc(-c2cc(F)cc(Cl)c2)c(Cl)cc1-n1c(=O)ccc2cc(S(=O)(=O)Nc3ccon3)ccc21 (atropisomer, axis not shown; (M)) [Example 462]", "log10(IC50)", -0.71),
    ("COc1cc(-c2cccc(F)c2)c(Cl)cc1-n1c(=O)ccc2cc(S(=O)(=O)Nc3cccnn3)ccc21 (atropisomer, axis not shown; (M)) [Example 468]", "log10(IC50)", 0.85),
    ("COc1cc(-c2cccc(F)c2)c(C)cc1-n1c(=O)ccc2cc(S(=O)(=O)Nc3ccon3)ccc21 (atropisomer, axis not shown; (P)) [Example 427]", "log10(IC50)", -1.60),
    ("COc1cc(-c2cccc(Cl)c2)c(C)cc1-n1c(=O)ccc2cc(S(=O)(=O)Nc3ncccn3)ccc21 (atropisomer, axis not shown; (P)) [Example 321]", "log10(IC50)", -2.00),
    ("COc1nc(OCc2ccc(F)c(F)c2F)c(Cl)cc1-n1c(=O)ccc2cc(S(=O)(=O)Nc3ccon3)ccc21", "log10(IC50)", -0.92),
    ("COc1cc(-c2cccc(Cl)c2)c(Cl)cc1-n1c(=O)ccc2cc(S(=O)(=O)Nc3ccon3)ccc21 (atropisomer, axis not shown; (M)) [Example 460]", "log10(IC50)", 0.25),
    ("COc1nc(O[C@H]2C[C@H]3CC[C@@H]2C3)c(Cl)cc1-n1c(=O)ccc2cc(S(=O)(=O)Nc3ccon3)ccc21", "log10(IC50)", -0.38),
    ("COc1cc(-c2cccc(F)c2)c(C)cc1-n1c(=O)ccc2cc(S(=O)(=O)Nc3ccon3)ccc21 (atropisomer, axis not shown; (M)) [Example 428]", "log10(IC50)", 0.88),
    ("COc1nc(C2CC2)c(Cl)cc1-n1c(=O)ccc2cc(S(=O)(=O)Nc3ccon3)ccc21 (atropisomer, axis not shown; (P)) [Example 1230]", "log10(IC50)", -0.33),
    ("COc1nc(O[C@H](C)C(F)(F)C(F)F)c(Cl)cc1-n1c(=O)ccc2cc(S(=O)(=O)Nc3ccon3)ccc21", "log10(IC50)", -0.87),
    ("COc1ccc(-c2ccnc(F)c2)cc1-n1c(=O)ccc2cc(S(=O)(=O)Nc3ccon3)ccc21", "log10(IC50)", 0.44),
    ("COc1cc(-c2cccc(F)c2)c(Cl)cc1-n1c(=O)ccc2cc(S(=O)(=O)Nc3nncs3)ccc21 (atropisomer, axis not shown; (P)) [Example 353]", "log10(IC50)", -1.92),
    ("COc1cc(-c2ccc(C)c(Cl)c2)ccc1-n1c(=O)ccc2cc(S(=O)(=O)Nc3ccon3)ccc21 (atropisomer, axis not shown; (M)) [Example 588]", "log10(IC50)", 0.01),
    ("COc1nc(Oc2ccc(F)c(F)c2)c(Cl)cc1-n1c(=O)ccc2cc(S(=O)(=O)Nc3ccon3)ccc21", "log10(IC50)", -0.04),
    ("COc1cc(C#CC2(O)CCCC2)c(F)cc1-n1c(=O)ccc2cc(S(=O)(=O)Nc3ccon3)ccc21 (atropisomer, axis not shown; (P))", "log10(IC50)", -0.20),
    ("COc1cc(Br)c(F)cc1-n1c(=O)ccc2cc(S(=O)(=O)Nc3cc(OCC(C)C)ncn3)ccc21 (atropisomer, axis not shown; (P))", "log10(IC50)", 0.22),
    ("COc1cc(-c2cccc(F)c2)c(Cl)cc1-n1c(=O)ccc2cc(S(=O)(=O)Nc3ccon3)c(F)cc21 (atropisomer, axis not shown; (P)) [Example 358]", "log10(IC50)", 0.67),
    ("N#CCOc1cc(-c2cccc(F)c2)c(F)cc1-n1c(=O)ccc2cc(S(=O)(=O)Nc3ccon3)ccc21", "log10(IC50)", -1.05),
    ("COc1cc(Br)c(F)cc1-n1c(=O)ccc2cc(S(=O)(=O)Nc3cc(OCC4CCCC4)ncn3)ccc21 (atropisomer, axis not shown; (P))", "log10(IC50)", 0.82),
    ("COc1cc(-c2cccc(F)c2)c(F)cc1-n1c(=O)cc(C)c2cc(S(=O)(=O)Nc3ccon3)ccc21 (atropisomer, axis not shown; (P))", "log10(IC50)", -0.31),
    ("COc1cc(-c2cccc(OC(F)F)c2)c(F)cc1-n1c(=O)cnc2cc(S(=O)(=O)Nc3ccon3)ccc21", "log10(IC50)", -1.03),
    ("COc1cc(C2CC2)ccc1-n1c(=O)ccc2cc(S(=O)(=O)Nc3ccon3)ccc21 (atropisomer, axis not shown; (P))", "log10(IC50)", 0.37),
    ("COc1cc(C[C@@H]2CCOC2)c(F)cc1-n1c(=O)ccc2cc(S(=O)(=O)Nc3ccon3)ccc21 (atropisomer, axis not shown; (P))", "log10(IC50)", 0.33),
]
